Assay Target: Nuclear receptor coactivator 2 (Homo sapiens)
Assay: SRC2 coactivator transcriptional activity inhibitors, confirmation, cell-based, luminescence, HEK293, triplicate (AID 652008)
Run Parameters: HEK293 GAL4-SRC2 luciferase reporter, at 8.9 µM, hits give high values
Just so you know, the groups by inhibition go like this: group A: < 20%; group B: ≥ 20% and < 50%; group C: ≥ 50%

# Compound, Discrete Label
data = [
    ("CNc1ccccc1C(=O)OC(C)C(=O)Nc1ccc(Cl)cn1 (stereo not drawn)", "group B"),
    ("COc1ccc(C)cc1Nc1n[n+](-c2ccccc2)c(-c2c(Cl)cccc2Cl)s1", "group B"),
    ("CC1CCc2nc(N)c(C#N)c(-c3cccnc3)c2C1 (stereo not drawn)", "group C"),
    ("CN(C)CCC(=O)N1C/C(=C/c2ccccc2)C(=O)/C(=C\\c2ccccc2)C1", "group C"),
    ("CN(C)S(=O)(=O)c1cccc(NC(=O)CSc2ncnc3ccccc23)c1", "group B"),
    ("CCNC(=O)C1(C)CCCN(Cc2csc(-c3ccccc3)n2)C1 (stereo not drawn)", "group A"),
    ("O=C(OC(c1ccccc1)c1nccc2ccccc12)c1ccccc1 (stereo not drawn)", "group C"),
    ("CCOC(=O)c1c(C)[nH]c(C(=O)Nc2ccc(NC(C)=O)cc2)c1C", "group A"),
    ("CC1CC(C)C(=NNC(N)=O)C(C(O)CC2CCC(=O)NC2=O)C1 (stereo not drawn)", "group A"),
    ("O=C(COC(=O)CCN1C(=O)/C(=C\\C=C\\c2ccccc2)SC1=S)Nc1ccc(Br)cc1", "group C"),
    ("O=S(=O)(c1cccc2cnccc12)N1CCNCC1", "group B"),
    ("O=c1c2ccccc2sn1-c1ccccc1", "group A"),
    ("C=C(C(=O)c1ccccc1)C(NC(C)(C)C)c1ccccc1 (stereo not drawn)", "group B"),
    ("Cc1c(Cl)sn(-c2ccc(Cl)cc2)c1=O", "group C"),
    ("Cc1ccc(CSC(Nc2ccc(F)cc2)=C(C#N)C#N)cc1", "group B"),
    ("COc1ccc(C(=O)C(CN2CCOCC2)c2ccccc2)cc1 (stereo not drawn)", "group B"),
    ("COc1cc(NC(=O)COC(=O)c2[nH]c(C)c(C(C)=O)c2C)cc(OC)c1", "group A"),
    ("CC1=CC(C)(C)Nc2ccc(OC(=O)CN3C(=O)C4CCCCC4C3=O)cc21 (stereo not drawn)", "group B"),
    ("COc1cccc(NC(=O)N2CCc3nc(Nc4ccc(C(C)C)cc4)ncc3C2)c1", "group A"),
    ("CCOC(=O)CCSc1nc(C(C)(C)C)cc(C(F)(F)F)c1C#N", "group A"),
    ("CC(C)(C)c1cc(/C=N/O)cc(C(C)(C)C)c1O", "group A"),
]
